METHOD_DESCRIPTION: Plasma clearance in rat at 1 mg/kg, iv and 2 mg/kg, po
Type: ADME, organism-based
Attribute: clearance
OUTCOME_MEASURE: clearance (mL/min/kg)

- CCC[C@@H](Cc1ccc(C(=O)NCCC(=O)O)cc1)C(=O)c1cc2cc(Cl)ccc2n1-c1cccc(C(F)(F)F)c1: 14.2
- CCCC(Cc1ccc(C(=O)NCCC(=O)O)cc1)C(=O)c1cc2cc(Cl)ccc2n1-c1ccc(Cl)c(C(F)(F)F)c1 (single isomer, unassigned): 9.2
- CCC[C@@H](Cc1ccc(C(=O)NCCC(=O)O)cc1)C(=O)c1cc2cc(Cl)ccc2n1-c1cccc(C(F)(F)F)n1: 24
- CCCCC[C@@H](Cc1ccc(C(=O)NCCC(=O)O)cc1)C(=O)c1cc2cc(Cl)ccc2n1-c1cccc(C(F)(F)F)c1: 6.8

====

Attribute: bioavailability
METHOD_DESCRIPTION: Oral bioavailability in rat at 2 mg/kg
Assay type: ADME, organism-based
STATED_CONDITIONS: in vivo
OUTCOME_MEASURE: bioavailability (%)

- CCC[C@@H](Cc1ccc(C(=O)NCCC(=O)O)cc1)C(=O)c1cc2cc(Cl)ccc2n1-c1cccc(C(F)(F)F)c1: 42
- CCCCC[C@@H](Cc1ccc(C(=O)NCCC(=O)O)cc1)C(=O)c1cc2cc(Cl)ccc2n1-c1cccc(C(F)(F)F)c1: 33
- CCC[C@@H](Cc1ccc(C(=O)NCCC(=O)O)cc1)C(=O)c1cc2cc(Cl)ccc2n1-c1cccc(C(F)(F)F)n1: 9.1
- CCCC(Cc1ccc(C(=O)NCCC(=O)O)cc1)C(=O)c1cc2cc(Cl)ccc2n1-c1ccc(Cl)c(C(F)(F)F)c1 (single isomer, unassigned): 17

====

METHOD_DESCRIPTION: Half life in dog at 0.5 mg/kg, iv and 2 mg/kg, po
Type: ADME, organism-based, Canis lupus familiaris
STATED_CONDITIONS: in vivo
OUTCOME_MEASURE: half-life

- CCCCC[C@@H](Cc1ccc(C(=O)NCCC(=O)O)cc1)C(=O)c1cc2cc(Cl)ccc2n1-c1cccc(C(F)(F)F)c1: 2.7 h

====

TESTED_TARGET: Glucagon receptor (Homo sapiens, UniProt P47871)
Sequence (P47871 whole entry): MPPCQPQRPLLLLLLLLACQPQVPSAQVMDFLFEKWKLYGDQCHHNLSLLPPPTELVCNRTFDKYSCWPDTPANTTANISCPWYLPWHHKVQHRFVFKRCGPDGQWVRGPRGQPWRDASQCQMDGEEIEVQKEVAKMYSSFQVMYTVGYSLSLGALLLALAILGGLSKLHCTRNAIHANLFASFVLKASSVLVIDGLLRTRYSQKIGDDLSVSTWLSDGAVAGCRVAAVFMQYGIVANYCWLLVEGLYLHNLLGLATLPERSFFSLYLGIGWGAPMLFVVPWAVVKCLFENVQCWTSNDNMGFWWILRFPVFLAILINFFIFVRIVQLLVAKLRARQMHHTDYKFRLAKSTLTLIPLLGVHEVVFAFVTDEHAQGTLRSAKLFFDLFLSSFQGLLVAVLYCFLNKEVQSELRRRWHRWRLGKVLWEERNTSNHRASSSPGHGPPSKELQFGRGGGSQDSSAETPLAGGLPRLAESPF
METHOD_DESCRIPTION: Displacement of [125I]-glucagon from human glucagon receptor expressed in CHO cells after 4 to 12 hrs by scintillation proximity assay
Type: cell-based
OUTCOME_MEASURE: IC50

* CCCC(Cc1ccc(C(=O)NCCC(=O)O)cc1)C(=O)c1cc2cc(Cl)ccc2n1-c1ccc2c(c1)OCCO2 (single isomer, unassigned) | 28 nM
* CCCC(Cc1ccc(C(=O)NCCC(=O)O)cc1)C(=O)c1cc2cc(Cl)ccc2n1-c1ccc(C(F)(F)F)cc1 (single isomer, unassigned) | 31 nM
* CCCC(Cc1ccc(C(=O)NCCC(=O)O)cc1)C(=O)c1cc2cc(Cl)ccc2n1-c1cc(C)cc(C)c1 (single isomer, unassigned) | 120 nM
* O=C(Nc1nnn[nH]1)c1ccc(Cn2c(C(=O)c3ccc(OC(F)(F)F)cc3)cc3ccc(C(F)(F)F)cc32)cc1 | 51 nM
* CCCC(Cc1ccc(C(=O)NCCC(=O)O)cc1)C(=O)c1cc2cc(Cl)ccc2n1-c1ccc(OC)c(C(F)(F)F)c1 (single isomer, unassigned) | 23 nM
* CCCCC[C@@H](Cc1ccc(C(=O)NCCC(=O)O)cc1)C(=O)c1cc2cc(C)ccc2n1-c1cccc(C(F)(F)F)c1 | 12 nM
